GI50 for assorted molecules
system: SK-MEL-28; assay: NCI tumour cell line growth inhibition, 48 h
The source made the active and inactive calls. No stated cut-off is given here; in the data, active = GI50 up to about 1.1 µM and inactive = higher.

Worked examples, 3 molecules total:
Molecule: O=C1/C(=C/c2ccco2)N=C2Sc3c([nH]cnc3=O)N12
Test Result: > 100 µM (inactive)
//
Molecule: NNC(=O)N/N=C(/CC1(O)C(=O)Nc2ccc(Br)cc21)c1ccccc1 (stereo not given)
Test Result: 28.2 µM (inactive)
//
Molecule: CC(C)(C)c1cc(S(=O)(=O)O)c2oc(-c3ccccc3)cc(=O)c2c1
Test Result: > 100 µM (inactive)

Memo: "COc1ccc(/C=N/NC(=O)c2ccccc2Nc2ccccc2C(=O)N/N=C/c2ccc(OC)cc2)cc1" , reported GI50: > 100 µM (inactive)

Memo: "O=[N+]([O-])/C=C/COCc1cc2c(cc1Br)OCO2" , reported GI50: 11.6 µM (inactive)

###

test system: PC-3; assay: NCI tumour cell line growth inhibition, 48 h
Activity calls are given as the source filed them. Cut-off read from the data, not from the text of the source: active = GI50 up to about 1.1 µM and inactive = higher.
Observation Type: GI50

Worked examples, 3 molecules total:
Molecule: Cc1nc(N)nc(N)c1N1CCN(Cc2ccccc2)CC1
Test Result: 7.48 µM (inactive)

Molecule: Cn1c(=O)sc2cc(C(=S)N3CCC(Cc4ccccc4)CC3)ccc21
Test Result: 37.9 µM (inactive)

Molecule: Cn1cnc(N2CCCC2)c(C#N)c1=S
Test Result: > 100 µM (inactive)

Memo: COc1ccc(NC(C)=O)cc1N1C(=O)/C(=C\c2cccc(Oc3ccccc3)c2)SC1c1ccccc1 (stereo unspecified) , reported GI50: 21.7 µM (inactive)

Memo: "Cn1c(=O)c2[nH]c(-n3nc(-c4ccccc4)cc3N)nc2n(C)c1=O" , reported GI50: 19.7 µM (inactive)

Memo: O=C1CC(c2ccsc2)n2cccc21 (stereo unspecified) , reported GI50: > 100 µM (inactive)

Memo: COc1ccc(OC)c(C2CCCc3c2cnc2nc(N)nc(N)c32)c1 (stereo unspecified) , reported GI50: > 71.1 µM (inactive)

Memo: "CCN(CC)CCSc1c2cc(OC)ccc2nc2ccc(OC)cc12" , reported GI50: 3.56 µM (inactive)

Memo: "COc1cc(Nc2nc3c(N)cc(C(F)(F)F)cc3nc2-c2ccccc2)cc(OC)c1OC" , reported GI50: 37.2 µM (inactive)

Memo: COC(=O)CN(CC(=O)NCCNC(=O)OC(C)(C)C)C1CCCCC1N(CC(=O)OC)CC(=O)OC (stereo unspecified) , reported GI50: > 100 µM (inactive)

Memo: "O=c1c(Cc2ccccc2)c(-c2ccccc2)[nH]n1C1=NCCN1" , reported GI50: 36.8 µM (inactive)

###

tested on: SR; assay: NCI tumour cell line growth inhibition, 48 h
Activity calls are given as the source filed them. Rule as the data show it: active = GI50 up to about 1.1 µM and inactive = higher.
Observation Type: GI50

Worked examples, 3 molecules total:
Molecule: Cc1cc(O)c(C(O)c2ccccn2)cc1O (stereo unspecified)
GI50: 3.01 µM (inactive)
//
Molecule: C1=Cc2cccc3occ(c23)C=C1
GI50: 15.8 µM (inactive)
//
Molecule: Oc1cc(-n2cccn2)c(O)cc1-n1cccn1
GI50: 12.6 µM (inactive)

Memo: "CC(=O)/C=C\C(=O)NNS(=O)(=O)c1ccc(C)cc1" , reported GI50: > 100 µM (inactive)

Memo: "Cc1ccc(S(=O)(=O)Nc2cccc(C)c2C)cc1" , reported GI50: 52.5 µM (inactive)

Memo: N#CC(c1nc2ccccc2nc1Cl)S(=O)(=O)c1ccccc1 (stereo unspecified) , reported GI50: > 100 µM (inactive)

Memo: "O=[N+]([O-])/C=C/COCc1cc2c(cc1Br)OCO2" , reported GI50: 23.4 µM (inactive)

Memo: "CN(C)Cc1cc(/C(=C(\C#N)c2ccccc2)c2ccc(O)cc2)ccc1O" , reported GI50: 12.9 µM (inactive)

Memo: "COc1cc2c(cc1NC(=O)c1ccccc1)c1c(n2S(=O)(=O)c2ccccc2)CCN(S(=O)(=O)c2ccccc2)C1" , reported GI50: > 100 µM (inactive)

Memo: "COC(=O)C1=C(C(=O)OC)SC(=C2SCSC3=C2SC(C(=O)OC)=C(C(=O)OC)C32SC3=C(CCCC3)S2)S1" , reported GI50: > 100 µM (inactive)

Memo: "O=[N+]([O-])c1ccc2nnnn2c1" , reported GI50: 4.76 µM (inactive)

###

GI50 for assorted compounds
system: UACC-257; experiment: NCI tumour cell line growth inhibition, 48 h
Calls of active or inactive are those of the source. No stated cut-off is given here; in the data, active = GI50 up to about 1.1 µM and inactive = higher.

Worked examples, 4 compounds total:
Compound: O=c1c(Nc2ccccc2)cn(CCOc2ccc(Cl)cc2)c(=O)n1CCOc1ccc(Cl)cc1
GI50: > 100 µM (inactive)

Compound: CN(C)Cc1cc(/C(=C(\C#N)c2ccccc2)c2ccc(O)cc2)ccc1O
GI50: 15.6 µM (inactive)

Compound: COc1cc2ccc1-c1cc(ccc1O)CC1c3cc4c(cc3CCN1C)Oc1c(OC)cc3c(c1O4)C(C2)N(C)CC3 (centres undefined)
GI50: 1.72 µM (inactive)

Compound: COc1c(Cl)nc2ccccc2c1N=[N+]=[N-]
GI50: > 100 µM (inactive)

Memo: COc1ccc(C2C(C(=O)O)=C(CO)Oc3cc4c(cc32)OCO4)c(OC)c1 (centres undefined) , reported GI50: > 100 µM (inactive)

Memo: "Cc1cc(NS(=O)(=O)c2ccc(NC(=O)c3cccc4c(NNc5ccc(S(N)(=O)=O)cc5)c5ccccc5nc34)cc2)no1" , reported GI50: > 100 µM (inactive)

Memo: "[N-]=[N+]=Nc1c(N2CCOCC2)c(Cl)nc2ccccc12" , reported GI50: 27.9 µM (inactive)

Memo: C=C1C(=O)OC2/C=C(\C)CC(O)/C=C(/CO)CC(OC(=O)/C(C)=C/C)C12 (centres undefined) , reported GI50: 45.6 µM (inactive)

Memo: "Cc1ccc(/N=N/c2c(C)nn(C(=O)CC(=O)Nc3ccccc3)c2C)cc1C" , reported GI50: > 10 µM (inactive)

###

test system: OVCAR-3; test: NCI tumour cell line growth inhibition, 48 h
Where a name gives a salt, the structure may show the parent alone. Calls of active or inactive are those of the source. No stated cut-off is given here; in the data, active = GI50 up to about 1.1 µM and inactive = higher.
GI50 for assorted compounds

Worked examples, 8 compounds total:
Compound: CCN1CCC(O)(c2ccc([N+](=O)[O-])cc2)C(C(=O)c2ccc([N+](=O)[O-])cc2)C1 (configuration not stated)
GI50: 14.8 µM (inactive)
//
Compound: OC1C2CCCCN2C[C@@H](O)[C@H]1O (some centres not stated)
GI50: > 100 µM (inactive)
//
Compound: Nc1c(-c2nc3ccccc3[nH]2)sc(=S)n1-c1ccccc1
GI50: 51.2 µM (inactive)
//
Compound: O=C(CC(=O)Nc1ccccc1Cl)NNC(Sc1ccccc1)c1cc(/N=N/c2ccc(Br)cc2)ccc1O (configuration not stated)
GI50: 0.404 µM (active)
//
Compound: CSC(=S)N/N=C(\C)c1cccc(C)n1
GI50: 0.0568 µM (active)
//
Compound: C/C=N\N1C(=O)c2ccccc2C1=O
GI50: > 100 µM (inactive)
//
Compound: Cc1ccccc1N/C(=C(/C(Cl)=C(Cl)Cl)[N+](=O)[O-])n1nnc2ccccc21
GI50: 16.9 µM (inactive)
//
Compound: COc1ccc2nc3cc(Cl)ccc3c(SCC(=O)Nc3ccccc3-c3ccccc3NC(=O)CSc3c4ccc(Cl)cc4nc4ccc(OC)cc34)c2c1
GI50: > 100 µM (inactive)

The reported OVCAR-3 GI50 of Cc1cccc(CC(Cc2c(C)cccc2C(=O)O)C(=O)O)c1 (configuration not stated) is > 100 µM (inactive)

The reported OVCAR-3 GI50 of "O=C1C2=C(N[C@@H](c3ccccc3)[C@H](c3ccccc3)N2)C(=O)c2ccccc21" is > 100 µM (inactive)

The reported OVCAR-3 GI50 of "COC(=O)/C=C/c1cnc2c(c1)oc(=O)n2C" is > 100 µM (inactive)

The reported OVCAR-3 GI50 of "COc1ccc2[nH]c3c4c(ccc3c2c1)C(=O)C=CC4=O" is 8.36 µM (inactive)

The reported OVCAR-3 GI50 of N#Cc1cnn2ccn(C3OC(COC(=O)c4ccccc4)C(OC(=O)c4ccccc4)C3OC(=O)c3ccccc3)c12 (configuration not stated) is > 21.5 µM (inactive)

The reported OVCAR-3 GI50 of "Cc1cccc(/N=N/c2ccc(O)c(CN(C)C)c2)c1" is 17.2 µM (inactive)

The reported OVCAR-3 GI50 of "CCOC(=O)Cn1c(=O)[nH]c(=O)c2c1ncn2Cc1ccccc1" is > 100 µM (inactive)

The reported OVCAR-3 GI50 of "O=C1c2c(O)cccc2C(C(=O)CCCCC(=O)C2c3cccc(O)c3C(=O)c3c(O)cccc32)c2cccc(O)c21" is 0.547 µM (active)

The reported OVCAR-3 GI50 of "COc1ccc2nc(/C(N)=C\C#N)ccc2c1" is 31.6 µM (inactive)

The reported OVCAR-3 GI50 of NCCCCN [PUTRESCINE HYDROCHLORIDE] is > 100 µM (inactive)

The reported OVCAR-3 GI50 of Nc1nc(SCCC/C=C/B(O)O)nc2c1ncn2C1OC(CO)C(O)C1O (configuration not stated) is > 243 µM (inactive)

The reported OVCAR-3 GI50 of "COc1cc([N+](=O)[O-])c(S(=O)(=O)O)cc1N" is > 100 µM (inactive)

The reported OVCAR-3 GI50 of "CCc1ccccc1NC(=O)c1cccc([N+](=O)[O-])c1O" is 26.7 µM (inactive)

The reported OVCAR-3 GI50 of "CCO/N=[N+](\[O-])N(CC)CC" is > 100 µM (inactive)
